Quick reference for melting point among some molecules

CC(C)n1nc(-c2c(-c3ccccc3)nn3ccc(NC(=O)OC(C)(C)C)cc23)ccc1=O [Example 145]    208 to 210 °C
COc1ccn2nc(-c3ccccc3)c(-c3ccc(=O)n([C@H]4CCOC4)n3)c2c1 [Example 120]    194 to 195 °C
CC(C)n1nc(-c2c(-c3ccccc3)nn3ccc(N4CCN(C(=O)CN(C)C)CC4)cc23)ccc1=O [Example 114]    129 to 130 °C
CC(C)n1nc(-c2c(-c3ccccc3)nn3ccc(C(=O)N4CCCCC4)cc23)ccc1=O [Example 89]    185 to 186 °C

Notebook: COC(=O)c1ccn2nc(-c3ccccc3)c(-c3ccc(=O)n(C(C)C)n3)c2c1 [Example 69] , melting point read as 186 to 187 °C

Notebook: CC(C)n1nc(-c2c(-c3ccccc3)nn3ccc(OCCN4C[C@@H](C)O[C@@H](C)C4)cc23)ccc1=O [Example 24] , melting point read as 157.5 to 158 °C

----------
observedProperty: melting point

COCC(C)n1nc(-c2c(-c3ccccc3)nn3ccc(OC)cc23)ccc1=O (stereo not drawn) [Example 121]    138 to 139 °C
CC(C)n1nc(-c2c(-c3ccccc3)nn3ccc(C(=O)NCCN(C)C)cc23)ccc1=O [Example 76]    157 to 158 °C

Next molecule, melting point to be filled in.
Notebook: COCN(COC)c1ccn2nc(-c3ccccc3)c(-c3ccc(=O)n(C(C)C)n3)c2c1 [Example 154] , melting point read as 148 to 150 °C

----------
observedProperty: melting point

Before answering, review these 3 worked examples.
CC(C)n1nc(-c2c(-c3ccccc3)nn3ccc(N4CCNCC4)cc23)ccc1=O [Example 107]    203 to 204 °C
COc1ccn2nc(-c3ccccc3F)c(-c3ccc(=O)n(C)n3)c2c1 [Example 126]    220.5 to 221.5 °C
CC(C)n1nc(-c2c(-c3ccccc3)nn3ccc(N4CCN(c5ccccn5)CC4)cc23)ccc1=O [Example 102]    221 to 222 °C

Notebook: CC(C)C(=O)Nc1ccn2nc(-c3ccccc3)c(-c3ccc(=O)n(C(C)C)n3)c2c1 [Example 149] , melting point read as 199 to 200 °C

Notebook: CC(C)n1nc(-c2c(-c3ccccc3)nn3cccc(OCCN(C)C)c23)ccc1=O [Example 198] , melting point read as 137 to 138 °C

Notebook: COc1ccn2nc(-c3ccccc3)c(-c3ccc(=O)n(C(C)C)n3)c2c1Br [Example 135] , melting point read as 205 to 206 °C

Notebook: CC(C)n1nc(-c2c(-c3ccccc3)nn3cccc(O)c23)ccc1=O [Example 195] , melting point read as 229 to 230 °C

Notebook: CCCCNC(=O)c1ccn2nc(-c3ccccc3)c(-c3ccc(=O)n(C(C)C)n3)c2c1 [Example 143] , melting point read as 185 to 186 °C

Notebook: COc1ccc(S(=O)(=O)Oc2ccn3nc(-c4ccccc4)c(-c4ccc(=O)n(C(C)C)n4)c3c2)cc1 [Example 7] , melting point read as 155 to 157 °C

Notebook: COc1ccn2nc(-c3ccc(F)cc3)c(-c3ccc(=O)n(C(C)C)n3)c2c1 [Example 129] , melting point read as 176 to 177 °C

Notebook: COc1ccn2nc(-c3ccccc3)c(-c3ccc(=O)n(C4CCOC4)n3)c2c1 (stereo not drawn) [Example 118] , melting point read as 207 to 208 °C

Notebook: CC(C)n1nc(-c2c(-c3ccccc3)nn3ccc(OCCCN(C)C)cc23)ccc1=O [Example 15] , melting point read as 125 to 126 °C

Origin of the recorded values: patent US20040110763A1
